assay: NCI Yeast Anticancer Drug Screen. Data for the mec2-1 strain (AID 157); conditions: S. cerevisiae mec2-1 strain, at 50.0 µM, stronger effect = higher value
Compounds without any hit were thinned out: in the full panel of roughly 79,000, 15% have a hit.
value kind: growth inhibition (%)
Give bare numbers, in %.

// below: answered compounds
compound: S=C(N/N=C\c1cccc(I)c1)NC1CN2CCC1CC2 (configuration not stated)
recorded measurement: 3.25
//
compound: O=[N+]([O-])c1cccc(C(Cl)Cl)c1
recorded measurement: -4.7
//
compound: O=C(Nc1c(Cl)cc([N+](=O)[O-])cc1Cl)C(=O)C1C(=O)NC(=S)NC1=O
recorded measurement: -28.4

Dear reader, for each entry below, please note its growth inhibition.
1. CCCCS(=O)(=O)Cl
2. O=[As](O)(O)c1ccc(N=Nc2ccc([As](=O)(O)O)cc2)cc1
3. CCCOC(=O)CCl
4. COc1ccc(CC(C)=O)cc1OC
5. COc1ccc2c(=O)c3ccccc3oc2c1CN(CCCl)CCCl
6. Cc1ccccc1-n1c(/C=C\c2ccccn2)nc2ccccc2c1=O

**A:**
1. 13.2
2. 11.1
3. 15.2
4. 6.8
5. 16.4
6. 8.65

Dear reader, for each entry below, please note its growth inhibition.
1. Cc1cc(Cl)ccc1O
2. NC1=NC(N)=N1
3. O=C1NC(=O)C(Cc2cccc(Cl)c2)C(=O)N1

**A:**
1. -14.8
2. 16.6
3. -6.9

Dear reader, for each entry below, please note its growth inhibition.
1. c1ccc(C[N+]23CN4CN(CN(C4)C2)C3)cc1
2. Cc1ccc(OP(=O)(Oc2ccc(C)cc2)Oc2ccc(C)cc2)cc1.Cc1ccc(OP(=O)(Oc2ccc(C)cc2)Oc2ccc(C)cc2)cc1.Cc1ccc(OP(=O)(Oc2ccc(C)cc2)Oc2ccc(C)cc2)cc1.Cc1ccc(OP(=O)(Oc2ccc(C)cc2)Oc2ccc(C)cc2)cc1.[O-][Cl+3]([O-])([O-])O.[Zn+2]
3. [Se]=[Hf]=[Se]

**A:**
1. -20
2. 9.9
3. -24.7

Dear reader, for each entry below, please note its growth inhibition.
1. CCOP(=O)(Cc1ccc(N)cc1)OCC
2. CC1CN1C(=O)NCCCCCCNC(=O)N1CC1C (configuration not stated)
3. O=[As](O)(O)c1cccc(O)c1
4. Nc1nnc(N)n1N
5. O=C(NC(c1ccccc1)(c1ccccc1)c1ccccc1)N(CCCl)CCCl

**A:**
1: -34; 2: -0.2; 3: -7.25; 4: -21.2; 5: 20.7

Dear reader, for each entry below, please note its growth inhibition.
1. CNP(=S)(Oc1cc(Cl)c(Cl)cc1Cl)N1CCN(c2ccc(Cl)cc2)CC1 (configuration not stated)
2. O=C(O)C(F)F

**A:**
[2, -1.2]

Dear reader, for each entry below, please note its growth inhibition.
1. COP(=O)(Oc1ccccc1)Oc1ccccc1
2. CCC12C=CCN3CCC4(C(=C(C(=O)OC)C1)Nc1ccccc14)[C@H]32 (some centres not stated)
3. COC1=CC2CCC3C(CCC4(C)C(OC(C)=O)CCC34)C2(C)CC1 (configuration not stated)
4. c1ccc2c(C3N4CCCN3CC4)c[nH]c2c1 (configuration not stated)
5. CC(C)NCc1ccccc1
6. COC12c3ccccc3-c3ccccc3C1[C@@H](C(=O)O)[C@H]2C(=O)O (some centres not stated)
7. O=C(CI)NCCNC(=O)CI
8. Fc1ccccc1N=C=S

**A:**
-17.5
6
10.8
-15.7
-12.3
1.6
16.2
-12

Dear reader, for each entry below, please note its growth inhibition.
1. c1ccc2nc(-c3ccc4ccccc4n3)ccc2c1
2. CN(C)CCCc1c[nH]c2ccccc12
3. O=c1c2cc(Br)cc(Br)c2nc(CCCl)n1-c1ccc(O)c([N+](=O)[O-])c1

**A:**
[-7.45, -6.6, 15.8]

Dear reader, for each entry below, please note its growth inhibition.
1. O=C(c1ccccc1)c1ccc2n[se]nc2c1
2. N.N.N.O=[N+]([O-])[O-].O=[N+]([O-])[O-].O=[N+]([O-])[O-].O=[N+]([O-])[O-].[Co+3]

**A:**
1. 10.2
2. 20.7
